Where do these numbers come from? They come from patent US20220112291A1.

- Subject Of Test: human CD1a expressed on cells (human, UniProt P06126 17-327)
- Sequence (P06126 17-327): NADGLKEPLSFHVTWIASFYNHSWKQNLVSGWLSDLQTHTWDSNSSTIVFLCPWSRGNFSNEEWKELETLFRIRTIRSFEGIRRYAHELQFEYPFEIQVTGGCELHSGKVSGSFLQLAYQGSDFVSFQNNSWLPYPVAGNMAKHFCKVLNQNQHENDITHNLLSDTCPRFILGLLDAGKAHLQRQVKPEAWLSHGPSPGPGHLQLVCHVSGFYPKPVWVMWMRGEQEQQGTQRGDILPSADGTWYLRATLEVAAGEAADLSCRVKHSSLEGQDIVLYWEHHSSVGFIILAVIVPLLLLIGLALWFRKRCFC
- Protocol Description: cell-based or functional assay
Measurement Type: Inhibition of CD69 expression, IC50 (nM)
Answers are plain numbers, in nM.

For record Ab555 (antibody, human IgG1, kappa, V domains shown, Optimized variant of Ab138; human IgG1 effector null / kappa; HC with or without terminal lysine) VH: EVQLVESGGGLVQPGGSLRLSCAASGFTFTDHYMHWVRQAPGKGLEWVAFIRNSAGGYTTESNPAVKGRFTISRDNAKNSLYLQMNSLRAEDTAVYYCARETTRIPTGWFAYWGQGTLVTVSS VL: DIQMTQSPSSLSASVGDRVTITCLASEDIYFDLAWYQQKPGKAPKLLIYGGDRLKEGVPSRFSGSGSGTDYTLTISSLQPEDFATYYCQQSYSYPYTFGQGTKLEIKR the listed Inhibition of CD69 expression, IC50 is 0.99
